- tested.on: T1, VEGFR-2-Fc (UniProt P35968 20-322)
- T1 construct: domain: first 3 Ig domains; conditioned supernatant of 293T cells; also called VEGFR-2-Fc fusion protein; not shown: Fc fragment of the pIg vector
- assay.comment: receptor-Fc IP
readout: binding result

As a guide, the following entries are already answered.
binder	test.value
23-9 (ligand) AHYNTEILKSIDNEWRKTQCMPREVCIDVGKEYPDEIEYIFKPPCVSVYRCGGCCNDEGLECVPTEESNITMQIMRITVPLSQGPKPVTISFLQHNKCECRPKKD	no binding
13-9 (ligand) GQNHHEVVKFMDVYQRSYCHPIETLVDIFQEYPDEIEYIFKPPCVSVYRCGGCCNDEGLECVPTEESNITMQIMRITVPLSQGPKPVTISFLQHNKCECRPKKD	no binding
53-3 (ligand, clone entry) AHYNTEILKSIDNEWRKTQCMPIETLVDIFQEYPDEIEYIFKPPCVSVYRCGGCCNSEGLQCVPTEESNITMQIMRIKPHQGQHIGEMSFLQHNKCECRPKKDLV	binds
74-8 (ligand) GQNHHEVVKSIDNEWRKTQCMPREVCIDVGKEFGVATNTFFKPSCVPLMRCGGCCNSEGLQCMNTSTSYLSKTLFEIKPHQGQHIGEMSFANHTSCRCMSKLD	binds
12-13 (ligand, clone acquired a point mutation, Asp to Asn at the last C-terminal amino acid of the hybrid) GQNHHEVVKFMDVYQRSYCHPIETLVDIFQEFGVATNTFFKPPCVSVYRCGGCCNDEGLECVPTEESNITMQIMRITVPLSQGPKPVTISFANHTSCRCMSKLNLVFEQKLISEEDLNSAVDHHHHHH	no binding
22-5 (ligand) AHYNTEILKSIDNEWRKTQCMPREVCIDVGKEFGVATNTFFKPPCVSVYRCGGCCNDEGLECVPTEESNITMQIMRIKPHQGQHIGEMSFANHTSCRCMSKLD	no binding

Input 74-6 (ligand) GQNHHEVVKSIDNEWRKTQCMPREVCIDVGKEFGVATNTFFKPSCVPLMRCGGCCNDEGLECMNTSTSYLSKTLFEIKPHQGQHIGEMSFANHTSCRCMSKLD . Output binding result: no binding

For 33-14 (ligand) GQNHHEVVKSIDNEWRKTQCMPIETLVDIFQEYPDEIEYIFKPPCVSVYRCGGCCNDEGLECMNTSTSYLSKTLFEITVPLSQGPKPVTISFANHTSCRCMSKLD the binder record lists binding result as no binding
